- measurement-description: soluble on expression in E. coli; label from the status in PepcDB or PDB records
measured-property: soluble on expression in E. coli

# chain, measured-property, measured-result
rows = [
    ("MENFLHKWFASEYDLYEEDLEKASALVNSHNIRTVVNVMFQHPIFTVNMMAALTSLPEATVRRYLNRFEEQQLIFSDGRMRSKTYYYYNLLDQLR", "soluble on expression in E. coli", "not soluble"),
    ("MYKDFANFIRTNKADLLNNWMNEMEKQSDQLINDIAKEAMYEETSKEFVDLIVSNVTENGSKFNEKLDDFAEKVVHLGWPIHFVTTGLRVFGLLVYTAMRDEDLFLKREEKPEDDAYYRFETWLSSMYNKVVTAYADTWEKTVSIQKSALQELSAPLLPIFEKISVMPLIGTIDTERAKLIIENLLIGVVKNRSEVVLIDITGVPVVDTMVAHHIIQASEAVRLVGCQAMLVGIRPEIAQTIVNLGIELDQIITTNTMKKGMERALALTNREIVEKEG", "soluble on expression in E. coli", "not soluble"),
    ("QSKFKKYSKMPLASGMTGKDVAEKMLHDNGIYDVRVTSTPGMLTDHYNPANKTVNLSEGVYGSNSVAAAAVAAHECGHAVQHARAYAPLKMRS", "soluble on expression in E. coli", "not soluble"),
]

Entry source: the DeepSol protein solubility set
